- Test system: HOP-92 NSCLC
- assay.comment: NCI tumour cell line growth inhibition, 48 h
Can you tell me TGI for the items I'm about to list?
Numbers only, in µM.

Solved entries (count: 5):
>>> print(df.to_string())
                                   compound  attribute_measured  scale_unit  observed_result
0  C=CC(C)(C)/C(=C\CO[Si](C(C)C)(C(C)C)C(C)C)C(=O)N(C)c1ccccc1I                 TGI          µM             22.2
1  O=C(O)C(Cc1ccccc1)N1C(=O)/C(=C/C(Cl)=C/c2ccc([N+](=O)[O-])cc2)SC1=S (centres undefined)                 TGI          µM             5.71
2      O=C(OCC1=CC(=O)c2ccccc2C1=O)c1ccccc1                 TGI          µM             34.9
3  O=C(NNC(=O)c1ccc(Cl)cc1NC(=O)C12CC3CC(CC(C3)C1)C2)c1ccc(Cl)cc1                 TGI          µM             51.9
4  COC1CCC(OC)C(c2nc3sccn3c2/C=N/N=C(N)N)C1 (centres undefined)                 TGI          µM             30.5

Could you tell me TGI for each of these compounds? They are listed below.
1. C(=Nc1ccc(-c2nc3ccccc3s2)cc1)c1cccs1
2. CCOC(=O)c1sc(NC(=O)COc2ccc(/C=C3\CCc4cc(OC)ccc4C3=O)cc2)nc1C
3. CN(C)C(=S)/N=c1\ssc(=Nc2ccccc2)n1-c1ccccc1
4. Cn1cnnc1Sc1c([N+](=O)[O-])nc(-c2ccc([N+](=O)[O-])cc2)n1C

a:
[90.7, 4.61, 46, 34.9]

Could you tell me TGI for each of these compounds? They are listed below.
1. CSCSCC(CO)NC(=O)/C=C\c1c(C)[nH]c(=O)[nH]c1=O (centres undefined)
2. COc1cc(C2CC(c3ccc(Cl)cc3)=NN2C(C)=O)ccc1Oc1ccnc2cc(Cl)ccc12 (centres undefined)
3. C=C(c1ccccc1)c1cc2c(=O)[nH]ccc2n1C
4. CC1=NN(c2ccccc2)C(=O)/C1=C\c1c(C)[nH]n(-c2ccccc2)c1=O
5. O=C(CCC(NC(=O)OCc1ccccc1)C(=O)OCc1ccccc1)Nc1cccc(OCc2ccccc2)c1 (centres undefined)

a:
10.1
62.6
61.3
90.5
75

---

- System: SR leukemia
- assay.comment: NCI tumour cell line growth inhibition, 48 h
Can you tell me TGI for the items I'm about to list?
One number for each entry, in µM.

compound	observed.result
Cc1oc(N)c(S(=O)(=O)/C(C#N)=C/c2ccccc2[N+](=O)[O-])c1C	40.2

Could you tell me TGI for each of these compounds? They are listed below.
1. O=C(NNC(=O)c1ccc(Cl)cc1NC(=O)C12CC3CC(CC(C3)C1)C2)c1ccc(Cl)cc1
2. CCOC(=O)/C=C/c1ccc([N+](=O)[O-])o1
3. CCN(CC)c1ccc(/C=N/N=C(N)N)cc1
4. OC(Cc1cccc2ccccc12)CN1CCC(c2ccccc2)CC1 (configuration not stated)
5. Cn1cc(-c2csc(-c3ccc(Cl)cc3)n2)c2cccnc21
6. CCCCC[C@H]1C/C=C2/C(=O)C=C[C@@H]2C/C=C\CCCC(=O)O1

a:
1: 63.8; 2: 26.1; 3: 15; 4: 27.4; 5: 59.6; 6: 50

Could you tell me TGI for each of these compounds? They are listed below.
1. CC(C)(C)OC(=O)NCC(c1c[nH]c2ccccc12)c1c[nH]c2ccccc12
2. Clc1cc(Cl)nc(Nc2ccc3c(c2)CCC3)n1
3. CCSc1c2ccccc2nc2c(OC)ccc(OC)c12
4. CN(C)CCN=c1nc2c(c(N)n1-c1ccccc1)c(=S)n(-c1ccccc1)c(=S)n2-c1ccccc1

a:
1: 32.4; 2: 77.6; 3: 62.5; 4: 3.34

---

Can you tell me TGI for the items I'm about to list?
- Test system: SK-MEL-28 melanoma
- assay.comment: NCI tumour cell line growth inhibition, 48 h
Where a SMILES comes first, the peptide text is derived from it. Bridges are numbered along the chain shown (N, C = ends).

Solved entries (count: 3):
compound	observed.result
Cc1cc(C)c(-c2c(O)c(Br)c(-c3c(C)cc(C)c(Br)c3C)c(O)c2Br)c(C)c1Br	12.8 µM
C/C(=N\Nc1nc2cc(F)ccc2s1)c1ccccn1	> 100 µM
COC(=O)C1CCC(=O)NCCCCC(NC(=O)C(N)CC(=O)O)C(=O)N1 (stereo not drawn) (H-Asp-Lys-Glu-OMe; lactam 2-3; configuration not given here)	> 100 µM

Could you tell me TGI for each of these compounds? They are listed below.
1. CN(C)Cc1cc(/C=C/C(=O)c2ccc(Br)cc2)cc(CN(C)C)c1O
2. Cc1nc(Nc2ccc(Cl)cc2)sc1C(=O)Nc1cccc2c(=O)[nH][nH]c(=O)c12
3. Cc1oc(N)c(S(=O)(=O)/C(C#N)=C/c2ccccc2[N+](=O)[O-])c1C
4. O=C(O)C1CC2C=CCC(C2)C1 (centres undefined)
5. O=C(O)C12C=CC(C1)c1ccccc12 (centres undefined)
6. O=C1CC(c2cccc([N+](=O)[O-])c2)C2(C(=O)NC(=S)NC2=O)C(c2cccc([N+](=O)[O-])c2)C1 (centres undefined)

a:
["34.9 µM", "> 100 µM", "64.2 µM", "> 100 µM", "> 100 µM", "> 100 µM"]

Could you tell me TGI for each of these compounds? They are listed below.
1. CCCCS(=O)(=O)c1cc(Nc2ccc(O)c3c2C(=O)c2ccccc2C3=O)ccc1C
2. CCOP(=O)(OCC)C(c1ccccc1)N(C(=O)NC(F)(F)F)c1ccc(C)cc1 (centres undefined)

a:
1: > 100 µM; 2: > 100 µM

Could you tell me TGI for each of these compounds? They are listed below.
1. CC(C)C(Br)C(=O)NCC(=O)O (centres undefined)
2. Cc1cc(NS(=O)(=O)c2ccc(Nc3c4ccccc4nc4c(C(=O)NC(CO)(CO)CO)cccc34)cc2)no1

a:
> 100 µM
> 100 µM

---

Can you tell me TGI for the items I'm about to list?
- System: MDA-N
- assay.comment: NCI tumour cell line growth inhibition, 48 h

Solved entries (count: 3):
In [3]: df
Out[3]:
                                   compound  attribute_measured  observed_result
0  C=CC(C)(C)/C(=C\CO[Si](C(C)C)(C(C)C)C(C)C)C(=O)N(C)c1ccccc1I                 TGI          33.6 µM
1  Cc1cc(C)c(S(=O)(=O)N(CCCCCN)OCCCN)c(C)c1                 TGI          31.4 µM
2          Clc1cc(Cl)nc(Nc2ccc3c(c2)CCC3)n1                 TGI         > 100 µM

Could you tell me TGI for each of these compounds? They are listed below.
1. CC1(C)CC(=O)C2=C(C1)NC(=S)C(C#N)C2c1ccccc1 (centres undefined)
2. CC(Cl)(CCC(Cl)C(C)(C)Cl)C(=O)CBr (centres undefined)
3. Cc1cccc(NC(=S)Nc2cccc(Cl)c2)n1
4. CCOC(=O)c1c(SC(=O)c2ccc(Cl)cc2)n(-c2ccccc2)c(=S)n(-c2ccccc2)c1=O
5. CC(=O)c1c(-c2ccco2)c(C#N)c(=S)n(C2OC(CO)C(O)C(O)C2O)c1C (centres undefined)
6. CC1(C)Cc2ccccc2C(C)(Cl)C(=O)N1 (centres undefined)

a:
> 100 µM
21.3 µM
> 100 µM
> 100 µM
> 100 µM
> 10 µM

---

- Tested on: UO-31 renal
- assay.comment: NCI tumour cell line growth inhibition, 48 h
Can you tell me TGI for the items I'm about to list?

Solved entries (count: 4):
In [3]: df
Out[3]:
                                   molecule  attribute_measured  observed_result
0        OC[C@H]1N[C@H](CO)[C@@H](O)[C@H]1O                 TGI         > 100 µM
1  O=[N+]([O-])/C(Cl)=C(\NCCO)C(Cl)=C(Cl)Cl                 TGI        > 86.4 µM
2  CC1(C)Cc2ccccc2C(C)(Cl)C(=O)N1 (stereo not given)                 TGI          > 10 µM
3  CCNC1CC(n2cc(C)c(=O)[nH]c2=O)OC1CO (stereo not given)                 TGI         > 100 µM

q: // query TGI value for entry CSCc1ncc(-c2ccc(C(F)(F)F)cc2)c(NC2CCCCCC2)n1
a: > 10 µM

Origin of measurements: PubChem BioAssay (NCI)
